- EXPERIMENT_NOTES: Phase I multiple rising dose pharmacokinetics, three once weekly oral doses of EFdA capsules in healthy adults
- Assay type: in vivo, human
- EXPERIMENTAL_SETUP: EFdA in plasma; 100 mg oral once weekly; Week 3; healthy fasted subjects; geometric mean (%GCV); read-out: Cmax
ENDPOINT_NAME: Cmax (nM)

• C#C[C@]1(CO)O[C@@H](n2cnc3c(N)nc(F)nc32)C[C@@H]1O [EFdA, 4′-Ethynyl-2-fluoro-2′-deoxyadenosine] = 1850

* * *

- EXPERIMENT_NOTES: Phase I multiple rising dose pharmacokinetics, three once weekly oral doses of EFdA capsules in healthy adults
- Assay type: in vivo, human
- EXPERIMENTAL_SETUP: human, plasma, po, 100 mg, EFdA in plasma; 100 mg oral once weekly; Week 1; healthy fasted subjects; median (min, max)
- Description: Pharmacokinetics of EFdA Following Administration of Oral Doses in Healthy Humans. The pharmacokinetics of EFdA were evaluated in Phase I single and multiple rising dose studies. In the single dose study, single oral doses of the oral suspension of EFdA from 5 to 400 mg were administered to three alternating panels of 8 healthy adult subjects. Within each panel, subjects were administered single doses of EFdA (n=6) or matching placebo (n=2) in a blinded fashion in up to 3 treatment periods. […]
ENDPOINT_NAME: Tmax (h)

- C#C[C@]1(CO)O[C@@H](n2cnc3c(N)nc(F)nc32)C[C@@H]1O: 2

* * *

- EXPERIMENT_NOTES: Phase I multiple rising dose pharmacokinetics, three once weekly oral doses of EFdA capsules in healthy adults
- Assay type: in vivo, human
- EXPERIMENTAL_SETUP: human; EFdA in plasma; 100 mg oral once weekly; Week 3; healthy fasted subjects; geometric mean (%GCV); read-out: AUC0-168 hr
ENDPOINT_NAME: AUC(0-t) (µM·h)

- C#C[C@]1(CO)O[C@@H](n2cnc3c(N)nc(F)nc32)C[C@@H]1O: 12

* * *

- EXPERIMENT_NOTES: Phase I multiple rising dose pharmacokinetics, three once weekly oral doses of EFdA capsules in healthy adults
- Assay type: in vivo, human
- EXPERIMENTAL_SETUP: human; EFdA in plasma; 100 mg oral once weekly; Week 3; healthy fasted subjects; geometric mean (%GCV)
ENDPOINT_NAME: half-life (days)

• C#C[C@]1(CO)O[C@@H](n2cnc3c(N)nc(F)nc32)C[C@@H]1O = 3.63

* * *

- EXPERIMENT_NOTES: Phase I multiple rising dose pharmacokinetics, three once weekly oral doses of EFdA capsules in healthy adults
- Type: in vivo, human
- EXPERIMENTAL_SETUP: human, plasma, po, 30 mg, EFdA in plasma; 30 mg oral once weekly; Week 3; healthy fasted subjects; median (min, max)
ENDPOINT_NAME: Tmax (h)

- C#C[C@]1(CO)O[C@@H](n2cnc3c(N)nc(F)nc32)C[C@@H]1O: 1

* * *

- EXPERIMENT_NOTES: Phase I multiple rising dose pharmacokinetics, three once weekly oral doses of EFdA capsules in healthy adults
- Format: in vivo, human
- EXPERIMENTAL_SETUP: human; EFdA in plasma; 30 mg oral once weekly; Week 3; healthy fasted subjects; geometric mean (%GCV); read-out: AUC0-168 hr
ENDPOINT_NAME: AUC(0-t)

- C#C[C@]1(CO)O[C@@H](n2cnc3c(N)nc(F)nc32)C[C@@H]1O: 3.97 µM·h

* * *

- EXPERIMENT_NOTES: Phase I multiple rising dose pharmacokinetics, three once weekly oral doses of EFdA capsules in healthy adults
- Format: in vivo, human
- EXPERIMENTAL_SETUP: EFdA in plasma; 10 mg oral once weekly; Week 3; healthy fasted subjects; geometric mean (%GCV); read-out: Cmax
ENDPOINT_NAME: Cmax (nM)

• C#C[C@]1(CO)O[C@@H](n2cnc3c(N)nc(F)nc32)C[C@@H]1O = 241

* * *

- EXPERIMENT_NOTES: Phase I multiple rising dose pharmacokinetics, three once weekly oral doses of EFdA capsules in healthy adults
- Assay type: in vivo, human
- EXPERIMENTAL_SETUP: human, plasma, po, 30 mg, EFdA in plasma; 30 mg oral once weekly; Week 1; healthy fasted subjects; median (min, max)
ENDPOINT_NAME: Tmax (h)

* C#C[C@]1(CO)O[C@@H](n2cnc3c(N)nc(F)nc32)C[C@@H]1O | 1

* * *

- EXPERIMENT_NOTES: Phase I multiple rising dose pharmacokinetics, three once weekly oral doses of EFdA capsules in healthy adults
- Type: in vivo, human
- EXPERIMENTAL_SETUP: EFdA in plasma; 10 mg oral once weekly; Week 1; healthy fasted subjects; geometric mean (%GCV); read-out: Cmax
ENDPOINT_NAME: Cmax (nM)

• C#C[C@]1(CO)O[C@@H](n2cnc3c(N)nc(F)nc32)C[C@@H]1O [EFdA, 4′-Ethynyl-2-fluoro-2′-deoxyadenosine] = 193

* * *

- EXPERIMENT_NOTES: Phase I multiple rising dose pharmacokinetics, three once weekly oral doses of EFdA capsules in healthy adults
- Assay type: in vivo, human
- EXPERIMENTAL_SETUP: human, plasma, po, 10 mg, EFdA in plasma; 10 mg oral once weekly; Week 3; healthy fasted subjects; median (min, max)
ENDPOINT_NAME: Tmax (h)

* C#C[C@]1(CO)O[C@@H](n2cnc3c(N)nc(F)nc32)C[C@@H]1O | 1

* * *

- EXPERIMENT_NOTES: Phase I single rising dose pharmacokinetics of oral EFdA suspension in healthy adults
- Type: in vivo, human
- EXPERIMENTAL_SETUP: human; EFdA in plasma; single oral doses 5 to 400 mg; healthy adults; read-out: apparent terminal half-life, slow terminal phase
- Protocol: Pharmacokinetics of EFdA Following Administration of Oral Doses in Healthy Humans. The pharmacokinetics of EFdA were evaluated in Phase I single and multiple rising dose studies. In the single dose study, single oral doses of the oral suspension of EFdA from 5 to 400 mg were administered to three alternating panels of 8 healthy adult subjects. Within each panel, subjects were administered single doses of EFdA (n=6) or matching placebo (n=2) in a blinded fashion in up to 3 treatment periods. […]
ENDPOINT_NAME: half-life

* C#C[C@]1(CO)O[C@@H](n2cnc3c(N)nc(F)nc32)C[C@@H]1O | 50 to 60 h

* * *

- EXPERIMENT_NOTES: Phase I multiple rising dose pharmacokinetics, three once weekly oral doses of EFdA capsules in healthy adults
- Format: in vivo, human
- EXPERIMENTAL_SETUP: human; EFdA in plasma; 30 mg oral once weekly; Week 3; healthy fasted subjects; geometric mean (%GCV)
ENDPOINT_NAME: half-life (h)

* C#C[C@]1(CO)O[C@@H](n2cnc3c(N)nc(F)nc32)C[C@@H]1O | 74.1

* * *

- EXPERIMENT_NOTES: Phase I multiple rising dose pharmacokinetics, three once weekly oral doses of EFdA capsules in healthy adults
- Assay type: in vivo, human
- EXPERIMENTAL_SETUP: EFdA in plasma; 30 mg oral once weekly; Week 3; healthy fasted subjects; geometric mean (%GCV); read-out: Cmax
ENDPOINT_NAME: Cmax (nM)

* C#C[C@]1(CO)O[C@@H](n2cnc3c(N)nc(F)nc32)C[C@@H]1O [EFdA, 4′-Ethynyl-2-fluoro-2′-deoxyadenosine] | 637

* * *

- EXPERIMENT_NOTES: Phase I multiple rising dose pharmacokinetics, three once weekly oral doses of EFdA capsules in healthy adults
- Format: in vivo, human
- EXPERIMENTAL_SETUP: human, plasma, po, 100 mg, EFdA in plasma; 100 mg oral once weekly; Week 3; healthy fasted subjects; median (min, max)
ENDPOINT_NAME: Tmax

* C#C[C@]1(CO)O[C@@H](n2cnc3c(N)nc(F)nc32)C[C@@H]1O [EFdA, 4′-Ethynyl-2-fluoro-2′-deoxyadenosine] | 1 h
